# credit: the DeepSol protein solubility set

Test: soluble on expression in E. coli; label from the status in PepcDB or PDB records
measurementLabel: soluble on expression in E. coli

| residueString | experimentalValue |
| --- | --- |
| MKINNLVDLHCHILPAIDDGSPSLEASLELARQAVADGIRYILATPHHMDRHYLNHAGDVVAAVEAFQAELDVNDIPLTIFPGQEVHLNGQLMEKVDDLLSIDTGRHYLLLELPHEMVPSYLDEMIFQLSCEGITPVIAHPERNAQIIAEPQRLYKLAEDGVLAQVTATSLVGTFGEQVQRTAKEFVKCGLVQVVASDAHTLKNRGFAMTKAYQVLNEMDSKYPERFATNARDLLNGEQIEMGQIEIPRKQRKHWLF | not soluble |
| MSRPPSRPRMMCARVLLLLSVTGLVLACETGPSSGDYEQAVMQDRVQRDMQMREKESVLPPGRREAFRGLNFYEVDPAYRYTVPLRRFETPDTVMIPESTGDLRPQQRIGEVTVPLPEGPEELVVFRGEGDTPRGRLWIPFADSTNRHATYKGGRYVDLTSTDSDSVVVDFNRAYNPTCAYNPDFACPLPPPENRIAVPVAAGEKRPTFGG | soluble |
| GPGSMSTALFVQATFFNTDNKSTDNKLMTTAAVSHNQSSQDNIMVVNLQKELQKRLEEDAGVKTLYITMGGEPRFNRALFENKSMALFVGDSMSIHHFTDDYGRITRRLLILYPMTFSRREEIPKQQILKKVEKAANQPEDNCGIEVVDLVELQKKHVYLEGQAAACYSYNGEFVYMALSGRSSEQVLSIICAPENLNIPNEKRFVFTAVLPHRSKENGRVIGEDVIPYTSLVGWCGKGICAWGLEFLRFPSEKDQEAFYEHLENNYSKVINLDESELRAFCGNAREVAIAHGNGERRVLCISHQALNALRPFKRQMLEDWYGLGNILPFYADVLERRAGRSVGSLVSVPVIHGEVLPLPGELGVIEAAKVDIKDGGC | soluble |
| MGSDKIHHHHHHMADLCVNLVPLFDALPQDEKMQIEKLVQHKNYQKGEVIIDPTINDNLVIVADGNAKQYTLDEDGYENVLQILHTGDYIGEDWLFGQKNINNYVEATEHSEICLLKRQDLLKLMHKQPELSIRLLELSIVKVSEMQKQIHLMALPKVEDRLLKYLQTYADEIGKNNFTLPLKMKDLALYLGTTPETLSRKFALLEKQGQLKRQLRRIELFEN | not soluble |
| MSLEDSKASLETRNFYMNRDFRDGPGQSKREEWAQGFILNLQSGYTQGTVGFGLDAMGMLGVKLDSGRGRSGTGLLPKDSDGRAPDTYSKLGLTAKVKVSQSELKVGTLIPKLPSVQPNNGRIFPQIFEGALLTSKEIKDLGFTAGRLEKTKIRDSSDSEDLALNDKNGRFAGVSADHFDLGGLDYKLTDQLTASYHYSNLQDVYRQHFVGLLHSWPIGPGELTSDLRFARSTDSGSAKAGGIDNKSLNGMFTYSLGNHAFGAAWQRMNGDDAFPYLEGSNPYLVNFVQVNDFAGPKERSWQLRYDYDFVGLGIPGLTFMTRYVKGDNVELAGQSGEGREWERNTELQYVFQSGALKNLGIRWRNATFRSNFTRDIDENRLIVSYTLPIWEGHHHHHH | soluble |

----------
Test: soluble on expression in E. coli; label from the status in PepcDB or PDB records

| residueString | soluble on expression in E. coli |
| --- | --- |
| GSSDVQYTEVQVSSAESHKDLGKKDTETVYSEVRKAVPDAVESRYSRTEGSLDGT | soluble |
| MIKLSSITAHILDIWHRRNSRSYIAHLRSLGIRIGDGCIFRDPLTTRIDVSRPALVSIGSNVDMNTYFQILTHDWASFVFRNKYHDFVNSSGRVEIGSNIYIGTNVIVLRGVTIGDNCVIGAGSVVTHDIPANSVAVGAPCRVVCSLEHHHHHH | soluble |
| MNTTGETTQPFYSHCDMNDPLCRAERLRTQFDYYRWHSLQPDDNDDVDTYTTDIATRIGKTQRYVCDHLDAIYYLTQLPQLHTVYQQLWHLDDTRLIAITRIISALPTTYYDAIDTHLTRWLTPTQPAQTIPSTRAITRFLRKTITHLGFHLDNTRKPEQYVYIYDAGHGLAGIDALIHAGVAEMFETTLRSIKKTHSCDDSTALQLLLEDKTSVVINVYDTGTGITYTPQGTALPQVPEHLVIRVLGDADVAVSTGYRFTEAMRRFIQGRDGVCRFPGCGVPAQWCDIDHVEEYDLGGVTGAVNAQCLCRHHHNVKTSRRVDCEIGAGGVVTWQIGDRRVVTTPEGVLAGQTFRQRREKKIKKAA | not soluble |
| MGSDKIHHHHHHMIRMNISVRNLKEITDLLSTIVSEAKFKVDENGMSVTAVDPAHVAMIRLEVPKEVFSEFRSDGTEEIALDIDRLKSVIRLANSSENVGITKDKEKLKFDLGNISKSVSLLDPSTIVTPKIPNIASEYYAIIKRSDFERGLRAAEDISDSIRFVLSSEGFRATSHSESEESEMVLPKDMLSDLSCSDTIKSSYPLEYLLKFIKAVSSADSLKISFRDDYPLSIEFYLDQNPSAKIKGLFLLAPRMEQ | not soluble |
